- assayText: Pharmacokinetic study: plasma concentration and plasma PK parameters after IV/PO dosing (LC-MS/MS, WinNonlin)
- Assay type: in vivo, Male SD Rat
- conditions: male, SD, rat, plasma, iv, 3 mg/kg, male SD rat, IV 3 mg/kg, plasma, individual rats; read-out: AUClast
measurementKind: AUC(0-t)

Look up AUC(0-t) of `COc1cc2c(cc1OC)[C@@H]1Cc3ccc(O)c(OC)c3CN1CC2` and report it.
937 ng·h/mL

* * *

- assayText: Pharmacokinetic study: plasma concentration and plasma PK parameters after IV/PO dosing (LC-MS/MS, WinNonlin)
- Type: in vivo, Male SD Rat
- conditions: male, SD, rat, plasma, iv, 3 mg/kg, male SD rat, IV 3 mg/kg, plasma, mean n=3; read-out: AUCInf, Mean
measurementKind: AUC(0-inf) (ng·h/mL)
Kindly answer with a numeric value in ng·h/mL, unit omitted.

Indicate its recorded AUC(0-inf); the compound in question is `COc1cc2c(cc1OC)[C@@H]1Cc3ccc(O)c(OC)c3CN1CC2`
1020

* * *

- assayText: Pharmacokinetic study: plasma concentration and plasma PK parameters after IV/PO dosing (LC-MS/MS, WinNonlin)
- Assay type: in vivo, Male SD Rat
- conditions: male SD rat, PO 10 mg/kg (equal to freebase), 8 h, mean n=3; vehicle 20% HP-β-CD in water (POA, freebase) or water (salts)
// reported concentration in plasma, Mean for each item listed
Report only the number, with the unit ng/mL understood.

These solved cases illustrate the format of a correct answer.
• COc1cc2c(cc1OC)[C@@H]1Cc3ccc(O)c(OC)c3CN1CC2.O=C(O)/C=C\C(=O)O [TLZ-16 maleate] = 36.5
• COc1cc2c(cc1OC)C1Cc3ccc(O)c(OC)c3CN1CC2.CS(=O)(=O)O (stereo not shown) [TLZ-16 mesylate] = 48.7
• COc1cc2c(cc1OC)[C@@H]1Cc3ccc(O)c(OC)c3CN1CC2.Cl [TLZ-16 HCl] = 24.7

Now for another entry.
Give me measured concentration in plasma, Mean, please, for this compound: COc1cc2c(cc1OC)[C@@H]1Cc3ccc(O)c(OC)c3CN1CC2.O=C(O)C(=O)O [TLZ-16 oxalate]
32.0

* * *

- assayText: Pharmacokinetic study: plasma concentration and plasma PK parameters after IV/PO dosing (LC-MS/MS, WinNonlin)
- Type: in vivo, Male SD Rat
- conditions: male, Sprague-Dawley, rat, plasma, po, 10 mg/kg, male SD rat, PO 10 mg/kg (equal to freebase), 8 h, individual rats; vehicle 20% HP-β-CD in water (POA, freebase) or water (salts); read-out: concentration in plasma
measurementKind: concentration at 8 h (ng/mL)
State the answer as a number, implicitly in ng/mL.

Supply reported concentration at 8 h belonging to this compound: `COc1cc2c(cc1OC)[C@@H]1Cc3ccc(O)c(OC)c3CN1CC2`
68.7

* * *

- assayText: Pharmacokinetic study: plasma concentration and plasma PK parameters after IV/PO dosing (LC-MS/MS, WinNonlin)
- Assay type: in vivo, Male SD Rat
- conditions: male, SD, rat, plasma, iv, 3 mg/kg, male SD rat, IV 3 mg/kg, plasma, individual rats; read-out: MRTInf_obs
measurementKind: MRT inf (h)
// note: answer is a bare numeric in h

Give the value of MRT inf reported for the following: COc1cc2c(cc1OC)[C@@H]1Cc3ccc(O)c(OC)c3CN1CC2 [Compound (1), l-corydalmine]
1.09

* * *

- assayText: Pharmacokinetic study: plasma concentration and plasma PK parameters after IV/PO dosing (LC-MS/MS, WinNonlin)
- Type: in vivo, Male SD Rat
- conditions: male, Sprague-Dawley, rat, plasma, iv, 3 mg/kg, male SD rat, IV 3 mg/kg, plasma, mean n=3; read-out: T1/2, Mean (converted)
measurementKind: half-life (h)
Write the answer as a number in h, unit excluded.

Please report half-life for the following compound: `COc1cc2c(cc1OC)[C@@H]1Cc3ccc(O)c(OC)c3CN1CC2`
2.73

* * *

- assayText: Pharmacokinetic study: plasma concentration and plasma PK parameters after IV/PO dosing (LC-MS/MS, WinNonlin)
- Type: in vivo, Male SD Rat
- conditions: plasma, PO (group POF), 10 mg/kg, mean of R49-R51
measurementKind: AUClast/D, Mean
Could you give the number and then its unit, please?

Annotate the molecule COc1cc2c(cc1OC)[C@@H]1Cc3ccc(O)c(OC)c3CN1CC2.O=S(=O)(O)O [TLZ-16 sulfate] with its measured AUClast/D, Mean.
105 kg·ng·h/mL/mg

* * *

- assayText: Pharmacokinetic study: plasma concentration and plasma PK parameters after IV/PO dosing (LC-MS/MS, WinNonlin)
- Assay type: in vivo, Male SD Rat
- conditions: male, SD, rat, plasma, po, 10 mg/kg, male SD rat, PO 10 mg/kg (equal to freebase), plasma, individual rats; vehicle 20% HP-β-CD in water (POA, freebase) or water (salts); read-out: AUCInf
measurementKind: AUC(0-inf) (ng·h/mL)
Give just the numeric value; ng·h/mL need not be written.

Report AUC(0-inf) for `COc1cc2c(cc1OC)[C@@H]1Cc3ccc(O)c(OC)c3CN1CC2`
1490

* * *

- assayText: Pharmacokinetic study: plasma concentration and plasma PK parameters after IV/PO dosing (LC-MS/MS, WinNonlin)
- Type: in vivo, Male SD Rat
- conditions: male, Sprague-Dawley, rat, plasma, iv, 3 mg/kg, male SD rat, IV 3 mg/kg, 4 h, mean n=3; read-out: concentration in plasma, Mean
measurementKind: concentration at 4 h

Consider the molecule COc1cc2c(cc1OC)[C@@H]1Cc3ccc(O)c(OC)c3CN1CC2 [Compound (1), l-corydalmine] and give its recorded concentration at 4 h.
30.6 ng/mL

* * *

- assayText: Pharmacokinetic study: plasma concentration and plasma PK parameters after IV/PO dosing (LC-MS/MS, WinNonlin)
- Type: in vivo, Male SD Rat
- conditions: male, Sprague-Dawley, rat, plasma, po, 10 mg/kg, male SD rat, PO 10 mg/kg (equal to freebase), 0.5 h, mean n=3; vehicle 20% HP-β-CD in water (POA, freebase) or water (salts); read-out: concentration in plasma, Mean
measurementKind: concentration at 0.5 h (ng/mL)
API: value field is a number in ng/mL; no unit string.

Give a short answer stating reported concentration at 0.5 h for `COc1cc2c(cc1OC)[C@@H]1Cc3ccc(O)c(OC)c3CN1CC2` .
197

* * *

- assayText: Pharmacokinetic study: plasma concentration and plasma PK parameters after IV/PO dosing (LC-MS/MS, WinNonlin)
- Format: in vivo, Male SD Rat
- conditions: male, SD, rat, plasma, po, 10 mg/kg, male SD rat, PO 10 mg/kg (equal to freebase), plasma, mean n=3; vehicle 20% HP-β-CD in water (POA, freebase) or water (salts); read-out: Tmax, Mean
measurementKind: Tmax (min)
The reply should contain only the number, in min.

Recall and state the measured Tmax for COc1cc2c(cc1OC)[C@@H]1Cc3ccc(O)c(OC)c3CN1CC2 [Compound (1), l-corydalmine] .
25

* * *

- assayText: Pharmacokinetic study: plasma concentration and plasma PK parameters after IV/PO dosing (LC-MS/MS, WinNonlin)
- Assay type: in vivo, Male SD Rat
- conditions: male, Sprague-Dawley, rat, plasma, iv, 3 mg/kg, male SD rat, IV 3 mg/kg, 0.25 h, individual rats; read-out: concentration in plasma
- Text: Pharmacokinetic and Brain Penetration Study Dose formulation processing during dosing: The dose formulations will be kept at room temperature. Concentrations of Test Article in the plasma samples will be analyzed using a LC-MS/MS method. WinNonlin (Phoenix™, version 6.1) or other similar software will be used for pharmacokinetic calculations. The following pharmacokinetic parameters will be calculated, whenever possible from the plasma concentration versus time data: […]
measurementKind: concentration at 0.25 h (ng/mL)
Answer with a number only, understood to be in ng/mL.

Answer with the recorded concentration at 0.25 h for the compound listed here: COc1cc2c(cc1OC)[C@@H]1Cc3ccc(O)c(OC)c3CN1CC2 [Compound (1), l-corydalmine]
974

* * *

- assayText: Pharmacokinetic study: plasma concentration and plasma PK parameters after IV/PO dosing (LC-MS/MS, WinNonlin)
- Type: in vivo, Male SD Rat
- conditions: male, SD, rat, plasma, iv, 3 mg/kg, male SD rat, IV 3 mg/kg, plasma, mean n=3; read-out: MRTInf_obs, Mean
measurementKind: MRT inf (h)
The figure you give is taken to be in h; do not add the unit.

Tell me measured MRT inf for COc1cc2c(cc1OC)[C@@H]1Cc3ccc(O)c(OC)c3CN1CC2 [Compound (1), l-corydalmine] please.
1.23

* * *

- assayText: Pharmacokinetic study: plasma concentration and plasma PK parameters after IV/PO dosing (LC-MS/MS, WinNonlin)
- Type: in vivo, Male SD Rat
- conditions: male, Sprague-Dawley, rat, plasma, iv, 3 mg/kg, male SD rat, IV 3 mg/kg, 2 h, mean n=3; read-out: concentration in plasma, Mean
measurementKind: concentration at 2 h (ng/mL)
Lab book: enter the figure in ng/mL, no units written.

Specify measured concentration at 2 h for `COc1cc2c(cc1OC)[C@@H]1Cc3ccc(O)c(OC)c3CN1CC2` .
68.4
